assayed_system: JAK2 (recombinant purified GST-tagged catalytic domain) (Homo sapiens (Human), UniProt O60674)
Sequence (O60674 849-1124): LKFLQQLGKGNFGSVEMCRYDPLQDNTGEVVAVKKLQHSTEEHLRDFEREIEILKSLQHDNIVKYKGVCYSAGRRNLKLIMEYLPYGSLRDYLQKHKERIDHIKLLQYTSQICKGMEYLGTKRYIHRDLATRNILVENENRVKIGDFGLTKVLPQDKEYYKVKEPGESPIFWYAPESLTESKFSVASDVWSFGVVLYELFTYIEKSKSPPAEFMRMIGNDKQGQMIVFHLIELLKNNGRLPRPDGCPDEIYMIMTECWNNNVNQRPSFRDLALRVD
test_method_notes: Jak Biochemical HTRF Assay (JAK2)
conditions: [ATP] 8.5 μM
Method: Jak Biochemical HTRF Assay Protocol The ability of compounds to inhibit the activity of JAK1, JAK2, JAK3, and Tyk2 was measured using a recombinant purified GST-tagged catalytic domain for each enzyme (Invitrogen JAK1 #M4290, JAK2 #M4290, JAK3 #M4290, Tyk2 #M4290) in an HTRF format biochemical assay. […] Plates were shaken and centrifuged and then incubated 60 minutes at room temperature and then read on a Perkin Elmer Envision (λex=337 nm, λem=665 and 615 nm, TRF delay time=20 μs). […]
value_kind: IC50 (nM)

{"structure_notation": "CC(C)CN1Cc2cc(Nc3nn(C4(CC#N)CCN(C(=O)OC(C)(C)C)CC4)c4cc[nH]c(=O)c34)ccc2S1(=O)=O", "measurement": 0.52}
{"structure_notation": "CC(C)(C)NC(=O)[C@@H]1CC[C@@](CC#N)(n2nc(Nc3ccc4c(c3)CN(C(C)(C)C)S4(=O)=O)c3c(=O)[nH]ccc32)CO1", "measurement": 1.94}
{"structure_notation": "N#CC[C@]1(n2nc(Nc3ccc(S(=O)(=O)C(F)F)cc3)c3c(=O)[nH]ccc32)CC[C@@H](N2CC(F)C2)CC1", "measurement": 9.07}
{"structure_notation": "CC(C)(C)OC(=O)[C@@H]1CC[C@@](CC#N)(n2nc(Nc3ccccc3)c3c(=O)[nH]ccc32)CO1", "measurement": 1.62}
{"structure_notation": "CN(C)S(=O)(=O)c1ccc(Nc2nn(C3(CC#N)CCN(C(=O)CCC#N)CC3)c3cc[nH]c(=O)c23)cc1", "measurement": 0.21}
{"structure_notation": "CC(C)(C)OC(=O)N1CCC(CC#N)(n2nc(Nc3ccc4c(c3)CN(CC(F)(F)F)C4=O)c3c(=O)[nH]ccc32)CC1", "measurement": 0.31}

// provenance: patent US9957264B2
